assay-protocol: yeast display, Sf9 membrane polyspecificity reagent, FACS + sequencing; frameworks hold sequencing errors
measured-endpoint: polyreactivity (PSR sort gate)

Recorded results for 4 sequences are shown here.
biosequence: QVQLVESGGGLVQAGGSLRLSCAASGRTFLRYAMGWYRQAPGKERELVAAISGSGGSTYYADSVKGRFTISRDNAKNTVYLQMNSLKPEDTAVYYCATRFWVSFKAREYWGQGTQVTVSS
measured-endpoint: polyreactivity (PSR sort gate)
value-measured: high polyreactivity
--
biosequence: QVQLVESGGGLVQAGGSLRLSCAASGFTLVLNAMGWYRQAPGKERELVAAIRRSAGSTYYADSVKGRFTISRDNAKNTVYLQLNSLKPEDTAVYYCAACFLWAKYAYGHWGTFNYWGQGTQVTVSS
measured-endpoint: polyreactivity (PSR sort gate)
value-measured: low polyreactivity
--
biosequence: QVQLVESGGGLVQAGGSLRLSCADSGRIFATNAMGWYRHAPGKERELVATITRSAGRTYYADSVKGRFTISRDNAKNTVYLQMNSLKPEDTAVYYCAASYWDTERGYREYDYWGQGTQVTVSS
measured-endpoint: polyreactivity (PSR sort gate)
value-measured: low polyreactivity
--
biosequence: QVQLVESWGGLVQAGGSLRLSCAASGNIFYFYAMGWYRQAPGKERELVAAITSVGSTKYADSVKGRFTISRDNAKNTVYLEMNCLKPEDTAVYYCAARRWRSYYYWGQGTHVTVSS
measured-endpoint: polyreactivity (PSR sort gate)
value-measured: high polyreactivity

Q. I'd like to know its polyreactivity (PSR sort gate). The sequence in question is QVQLVESGGGLVQAGGSLRLSCAASGRIFRGYAMGWYRPAPGKERELVAAIDTDTGITYYADSVKGRFTISRVNAKNTVNLQMNSLKPEDTAVYYCAAETYYAVSTGYYFDYWGQGTQVTVSS
A. high polyreactivity
